conditions: in isobutanol, 293.15 K
MEASUREMENT TYPE: solubility (mole fraction)
Please state the value as a number alone, without comment.

[ask] Suppose we examine the compound Oc1ccc([C@@H]2COc3cc(O)ccc3C2)cc1 ; what solubility (mole fraction) value has been reported?
[reply] 0.0296

---

conditions: in isobutanol, 298.15 K
MEASUREMENT TYPE: solubility (mole fraction)
I'd appreciate a reply containing only the number, no unit.

[ask] Item under review: Oc1ccc([C@@H]2COc3cc(O)ccc3C2)cc1 . Reported solubility (mole fraction)?
[reply] 0.0334

---

settings: in n-heptane, 313.15 K
MEASUREMENT TYPE: solubility (mole fraction)
Simply state the number, no unit and no words.

[ask] State the recorded solubility (mole fraction) for this entry: Oc1ccc([C@@H]2COc3cc(O)ccc3C2)cc1
[reply] 0.00107

Just for reference, BigSolDB 2.1 is where these values come from.
